- Tested on: Diabrotica virgifera virgifera Leconte, 3rd instar western corn rootworm
- experiment_summary: Evaluation against 3rd instar western corn rootworm, treated talc/soil jar test, mortality after 5 days
- Format: in vivo
- measurement_setup: 10 ppm; mortality rating 0-9 after 5 days in soil
Collected Western Corn Rootworm (10 ppm) rating values appear next to each entry.
Would you mind answering with just the numeric figure?

Below, each entry is followed by its recorded Western Corn Rootworm (10 ppm) rating result.
> print(dat)
                                   molecule  observed.measurement
1  CC(C)C(OC1CCCC1)C(C)(C)C(=O)Nc1ccc(C(F)(F)F)cc1 (centres unmarked) [Compound 26]                   0.0
2  CC(C)C(OC(=O)CCl)C(C)(C)C(=O)Nc1ccc(C(F)(F)F)cc1 (centres unmarked) [Compound 20]                   5.0
3  CCOCN(C(=O)C(C)(C)C(=O)C(C)C)c1ccc(C(F)(F)F)cc1 [Compound 15]                   9.0
4  CC(C)C(OC=O)C(C)(C)C(=O)Nc1ccc(C(F)(F)F)cc1 (centres unmarked) [Compound 33]                   5.0

Kindly consider the entry below.
Western Corn Rootworm (10 ppm) rating for CC(C)OC(C(C)C)C(C)(C)C(=O)Nc1ccc(C(F)(F)F)cc1 (centres unmarked) [Compound 23] ?
9.0

Data origin: patent US6359009B1
